Sourced from PubChem BioAssay

Give measured composite z-score for each item. Keep answers brief.
# Test: binders from COS7 lysate, DM2A8 probe, primary screen, torsin A project, cell lysate, small-molecule microarray, fluorescence 635/667 (AID 1065)
# Details: higher = more signal, COS7 lysate expressing mutant human TOR1A
One number for each entry.

Example results:
GET /values?readout=composite z-score&item= `COCCCNC(=O)[C@@H]1c2ccccc2C(=O)N(Cc2ccc(OC(F)(F)F)cc2)[C@H]1c1ccc(CO)cc1`
0.0383

May I ask what composite z-score has been recorded for O=C1C2C=CC(C(O)C3CCCCC3)N(n3cnnc3)C2C(=O)N1Cc1ccccc1 (stereo unspecified) ?
0.396

Which composite z-score value belongs to `CN(C)CCCNC(=O)[C@@]1(C)c2ccccc2C(=O)N(Cc2ccc(OC(F)(F)F)cc2)[C@H]1c1ccc(CO)cc1` ?
-0.674

What does the record list as composite z-score for NC(=O)N1C(=O)C2C(C1=O)C1C=C(CCCO)C2C(c2ccc(CN3CCCC3)cc2)N1Cc1cc2c(cc1Br)OCO2 (stereo unspecified) ?
0.19

// composite z-score lookup, key: CN1C(=O)C2C(C3CC3)C=C3CN(Cc4cccc(Cl)c4)[C@@H]([C@@H](O)Cc4ccccc4)C3C2C1=O (stereo partly specified)
0.268

Need composite z-score for each of these compounds.
1. COC(=O)[C@@]1(Cc2ccc(F)cc2)[C@H]2c3cc(C(=O)N4CCCC4)n(Cc4ccccn4)c3C[C@H]2CN1C(=O)c1ccccc1
2. Cc1ccc(F)cc1S(=O)(=O)N[C@H]1CCN(Cc2ccc(OC(C)C)cc2)C1
3. C[C@@H]1NC(=O)C([C@@H](C)OCc2ccccc2)NC(=O)[C@@]23C(=O)N[C@@H](Cc4ccccc4)C2[C@H](C)[C@@]2(C)O[C@H]2C3/C=C/C/C=C\CNC1=O (stereo partly specified)
4. CC(=O)c1ccc(C(O)C2C=CC3C(=O)N(c4ccccc4)C(=O)C3N2Nc2ccc(C(C)C)cc2)cc1 (stereo unspecified)
5. C=CCNC(=O)[C@H]1[C@@H]2C(=O)O[C@@H](c3ccccc3)[C@@H](c3ccccc3)N2[C@@H](c2ccccc2OCCO)[C@]12C(=O)N(C(=O)OCCOC)c1ccc(C#Cc3ccc(OC)cc3)cc12
6. O=C(NCc1ccccc1)[C@@H]1c2ccccc2C(=O)N(Cc2cc(C(F)(F)F)cc(C(F)(F)F)c2)[C@H]1c1ccc(CO)cc1

1: -0.89; 2: 0.325; 3: -0.328; 4: -0.152; 5: 0.633; 6: 1.62
